- Tested on: K-562 leukemia
- PROTOCOL DETAILS: NCI-60 one-dose screen, 48 h
- EXPERIMENTAL CONTEXT: 10 µM unless noted
This is part of a sample that, as a whole, favours compounds with a hit. Of some 83,000 tested, about 20% had one in any assay. Calls of active or inactive are those of the source. Rule for the calls: active = growth percent below 10; inactive = the rest.
One label from this list, please: active, inactive

Worked cases, answers included:
COc1ccc(NC2=CC(=O)C(C)=C(C)C2=O)cc1	inactive
CCOC(=O)c1c(Nc2ccccc2)nn2c(N)c(C#N)c(-c3ccc(Cl)cc3)nc12	inactive

Lookup: Please share the test call associated with C/C(=N\NC(N)=O)c1c(O)sc(=O)[nH]c1=O .
Found: inactive

###

- System: UACC-62 melanoma
- PROTOCOL DETAILS: NCI-60 one-dose screen, 48 h (100 = growth as untreated, 0 = no growth, -100 = all killed)
- EXPERIMENTAL CONTEXT: 10 µM unless noted
This is part of a sample that, as a whole, favours compounds with a hit. Of some 83,000 tested, about 20% had one in any assay.
# note: boundary value 80% maps to 0; growth below it maps to 1

Worked cases, answers included:
O=C1c2c(c3c4cc(Br)ccc4[nH]c3c3ccc4ccccc4c23)C(=O)N1CCO	1
COc1ccc(-c2nc3ccc(-c4nnc(SCC(=O)Nc5ccc(C(C)=O)cc5)o4)cc3[nH]2)cc1	0
N#Cc1nc(-c2ccccc2)oc1S(=O)(=O)N1CCCCC1	0
Cc1ccc2c(n1)C(=O)C(Cl)=C(Nc1cccc(C(C)C)c1)C2=O	0
COc1ccc(/C=C2\SC(=Nc3cc(C)[nH]n3)NC2=O)cc1	0

Lookup: Consider the compound CC(=O)Oc1ccccc1C(=O)Nc1ccc(C(=O)/C=C/c2ccncc2)cc1 . Is its growth strictly less than 80%?
Found: 1

Lookup: Also CCCCN1C(=O)/C(=c2\sc3n(c2=O)C2C(NN=3)N(CC)C(=O)N2CC)c2cc(Cl)ccc21 (stereo not given) , if possible.
Found: 1

Lookup: Also COc1ccc(Cc2nn(CC(=O)N/N=C/c3ccc(Cl)cc3)c(=O)c3c(C)noc23)cc1 , if possible.
Found: 0

Lookup: Also COc1cc(/C=C/C(=O)c2cc(OC)c(OC)c(OC)c2)ccc1Oc1nc(NCCO)nc(N2CCOCC2)n1 , if possible.
Found: 1

Lookup: Also CN(C)CCCOc1c2ccc(Cl)cc2nc2c1oc1ccccc12 , if possible.
Found: 1

Lookup: Also Nc1c(C(=O)Nc2ccc(Cl)cc2)sc2nc(-c3cnccn3)cc(-c3cccs3)c12 , if possible.
Found: 1

Lookup: Also C#Cc1nc(C2=C(C)/C(=N/OCc3ccccc3)CC2)cs1 , if possible.
Found: 1

Lookup: Also CCOC(=O)c1c(NC(=O)c2cccc(C(F)(F)F)c2)sc2cc(O)ccc12 , if possible.
Found: 0

Lookup: Also CC(=O)Oc1ccccc1C(=O)Nc1ccc(C(=O)/C=C/c2cccs2)cc1 , if possible.
Found: 0

Lookup: Also Nc1cc(-c2c[nH]c3ccc(Cl)cc23)nc2cc(-c3c[nH]c4ccc(Cl)cc34)nn12 , if possible.
Found: 1

###

- Tested on: SNB-19 CNS
- PROTOCOL DETAILS: NCI-60 one-dose screen, 48 h (100 = growth as untreated, 0 = no growth, -100 = all killed)
- EXPERIMENTAL CONTEXT: 10 µM unless noted
This is part of a sample that, as a whole, favours compounds with a hit. Of some 83,000 tested, about 20% had one in any assay.
EXPERIMENTAL READOUT: growth (%)
Give bare numbers, in %.

Reference set, count: 5
N=C1CC(=O)NN1C(=O)CSc1nc2sc3c(c2c(=O)n1-c1ccc(Cl)cc1)CCCC3	92.9
C#Cc1nc(C2=C(C)/C(=N/OCc3ccccc3)CC2)cs1	72.8
O=C(O)CCCCCN1C(=O)/C(=C/c2ccc(O)c(O)c2)SC1=S	96.1
O=C(CSc1nccc(=O)[nH]1)Nc1ccc(-c2nc3ccccc3[nH]2)cc1	103
CCOC(=O)c1c(Nc2ccccc2)nn2c(N)c(C#N)c(-c3ccc(Cl)cc3)nc12	89.8

List growth for every entry below, keeping the order given.
1. COc1ccc(-c2nn3c(-c4ccccc4F)nnc3s2)cc1
2. COc1ccc(NC2=C(Cl)C(=O)C(C)=C(C)C2=O)cc1OC
3. OC1CCN(CCCOc2c3ccc(Cl)cc3nc3c2oc2ccc(Cl)cc23)CC1
4. COc1ccc(C(=O)/C=C/c2ccc(Oc3nc(NCCO)nc(N4CCOCC4)n3)c(OC)c2)cc1
5. COc1ccc(C(=O)/C=C/c2ccc(OCc3ccc(Cl)cc3)c(OC)c2)cc1OC
6. COc1cc(-c2nc3ccc(-c4nnc(SCC(=O)Nc5ccc(C(=O)/C=C/c6ccc(Cl)cc6)cc5)o4)cc3[nH]2)cc(OC)c1OC

Found:
[73.2, 84.7, 29.5, 69.3, 72.3, 93.4]
